Entries annotated with measured IC50
# TARGET OF ASSAY: Thromboxane-A synthase (Homo sapiens)
# PROTOCOL NOTES: In vitro activity on thromboxane A2 synthase inhibition in gel filtered human platelets.
MEASURED ENDPOINT: IC50

O=C(O)CCC/C=C(/c1cccnc1)c1cccc(N/C(=N\C2CCCC2)NC(=O)c2ccccc2)c1: 4 nM
C/N=C(/NC#N)Nc1cccc(/C(=C\CCCC(=O)O)c2cccnc2)c1: 250 nM
CC(C)C/N=C(\Nc1cccc(/C(=C\CCCC(=O)O)c2cccnc2)c1)Nc1nn[nH]n1: 930 nM
CC(C)C/N=C(/NC#N)Nc1cccc(/C(=C\CCCC(=O)O)c2cccnc2)c1: 25 nM
CC(C)(C)/N=C(\Nc1cccc(/C(=C\CCCC(=O)O)c2cccnc2)c1)NS(=O)(=O)c1ccccc1: 3 nM
N#CN/C(=N/Cc1ccccc1)Nc1cccc(/C(=C\CCCC(=O)O)c2cccnc2)c1: 11 nM
CC(C)(C)Nc1c(Nc2cccc(/C(=C\CCCC(=O)O)c3cccnc3)c2)c(=O)c1=O: 230 nM
N/C(=N/C1CCCC1)Nc1cccc(/C(=C\CCCC(=O)O)c2cccnc2)c1: 3900 nM
N#CN/C(=N/C1CCCCC1)Nc1cccc(/C(=C\CCCC(=O)O)c2cccnc2)c1: 3 nM

----------
# TARGET OF ASSAY: Thromboxane-A synthase (Homo sapiens, UniProt P24557)
# Sequence (P24557 whole entry): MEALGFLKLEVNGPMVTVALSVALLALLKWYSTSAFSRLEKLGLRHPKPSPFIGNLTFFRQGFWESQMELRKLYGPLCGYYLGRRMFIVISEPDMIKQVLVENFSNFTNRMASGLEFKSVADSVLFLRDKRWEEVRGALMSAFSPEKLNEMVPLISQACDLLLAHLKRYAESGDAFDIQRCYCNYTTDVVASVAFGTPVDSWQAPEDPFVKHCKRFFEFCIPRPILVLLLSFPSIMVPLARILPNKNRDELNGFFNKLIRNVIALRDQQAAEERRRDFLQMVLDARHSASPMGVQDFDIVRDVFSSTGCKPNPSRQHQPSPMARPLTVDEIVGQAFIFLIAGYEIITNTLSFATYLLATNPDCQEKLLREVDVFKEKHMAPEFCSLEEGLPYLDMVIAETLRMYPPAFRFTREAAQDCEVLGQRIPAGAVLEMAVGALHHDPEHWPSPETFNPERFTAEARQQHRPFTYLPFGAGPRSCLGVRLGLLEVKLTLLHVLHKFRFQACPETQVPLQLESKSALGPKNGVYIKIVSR
# PROTOCOL NOTES: In vitro activity on thromboxane A2 synthase inhibition in gel filtered human platelets.
The entries below are paired with their reported IC50.
MEASURED ENDPOINT: IC50 (µM)

CC(C)(C)/N=C(/S)Nc1cccc(/C(=C\CCCC(=O)O)c2cccnc2)c1: 0.022
CC(C)(C)/N=C(\NC#N)Nc1cccc(/C(=N\OCCCCC(=O)O)c2cccnc2)c1: 0.005
CC(C)(C)/N=C(\Nc1cccc(/C(=C\CCCC(=O)O)c2cccnc2)c1)NS(C)(=O)=O: 0.025
CN(C)/C(=N/c1cccc(/C(=C\CCCC(=O)O)c2cccnc2)c1)NC#N: 0.026
N#CN/C(N)=N\c1cccc(/C(=C\CCCC(=O)O)c2cccnc2)c1: 0.43
N#CN/C(=N/Cc1cccnc1)Nc1cccc(/C(=C\CCCC(=O)O)c2cccnc2)c1: 0.32
N#CN/C(=N/C1CC1)Nc1ccc(/C(=C\CCCC(=O)O)c2cccnc2)cc1: 3.9

----------
# TARGET OF ASSAY: UniProt P21731
# PROTOCOL NOTES: In vitro activity on thromboxane A2 receptor antagonism in gel filtered human platelets.
# maps each entry to its IC50
MEASURED ENDPOINT: IC50 (nM)

O=C(O)CCC/C=C(/c1cccnc1)c1cccc(N/C(=N\C2CCCC2)NC(=O)c2ccccc2)c1: 110
CC(C)C/N=C(/NC(N)=O)Nc1cccc(/C(=C\CCCC(=O)O)c2cccnc2)c1: 610
CC(C)(C)NC(=O)Nc1cccc(/C(=C\CCCC(=O)O)c2cccnc2)c1: 1300
N#CN/C(=N/Cc1ccccc1)Nc1cccc(/C(=C\CCCC(=O)O)c2cccnc2)c1: 32
CC(C)(C)/N=C(\Nc1cccc(/C(=C\CCCC(=O)O)c2cccnc2)c1)NS(C)(=O)=O: 330
N#CN/C(=N/C1CC1)Nc1ccc(/C(=C\CCCC(=O)O)c2cccnc2)cc1: 21000
CC(C)C/N=C(\Nc1cccc(/C(=C\CCCC(=O)O)c2cccnc2)c1)Nc1nn[nH]n1: 300
N#CN/C(=N/Cc1cccnc1)Nc1cccc(/C(=C\CCCC(=O)O)c2cccnc2)c1: 130
CN(C)/C(=N/c1cccc(/C(=C\CCCC(=O)O)c2cccnc2)c1)NC#N: 120
CC(C)(C)/N=C(\NC#N)Nc1cccc(/C(=N/OCCCCC(=O)O)c2cccnc2)c1: 510
O=C(O)CCC/C=C(/c1cccnc1)c1cccc(N/C(=C/[N+](=O)[O-])NC2CCCCC2)c1: 440
CC(C)(C)/N=C(\NC#N)Nc1cccc(/C(=C\CCCCC(=O)O)c2cccnc2)c1: 330
CC(C)(C)/N=C(\NC#N)Nc1cccc(/C(=N\OCCCCC(=O)O)c2cccnc2)c1: 310
N#CN/C(N)=N\c1cccc(/C(=C\CCCC(=O)O)c2cccnc2)c1: 35
N#CN/C(=N/C1CCCCC1)Nc1cccc(/C(=C\CCCC(=O)O)c2cccnc2)c1: 47
C/N=C(/NC#N)Nc1cccc(/C(=C\CCCC(=O)O)c2cccnc2)c1: 16
CC(C)(C)/N=C(/S)Nc1cccc(/C(=C\CCCC(=O)O)c2cccnc2)c1: 38
CC(C)(C)Nc1c(Nc2cccc(/C(=C\CCCC(=O)O)c3cccnc3)c2)c(=O)c1=O: 830
CC(C)(C)/N=C(\NC#N)Nc1cccc(/C(=C/CCCC(=O)O)c2cccnc2)c1: 2600
CC(C)(C)NC(Nc1cccc(/C(=C\CCCC(=O)O)c2cccnc2)c1)=C(C#N)C#N: 3

----------
# TARGET OF ASSAY: Thromboxane-A synthase (Homo sapiens)
# PROTOCOL NOTES: In vitro activity on thromboxane A2 synthase inhibition in gel filtered human platelets.
Class (required): determined from IC50; valid ranges are lower level: < 6 nM; middle level: ≥ 6 nM and < 300 nM; upper level: ≥ 300 nM

N#CN/C(=N/C12CC3CC(CC(C3)C1)C2)Nc1cccc(/C(=C\CCCC(=O)O)c2cccnc2)c1: lower level
CC(C)(C)/N=C(\NC#N)Nc1cccc(/C(=N/OCCCCC(=O)O)c2cccnc2)c1: middle level
O=C(O)CCC/C=C(/c1cccnc1)c1cccc(N/C(=C/[N+](=O)[O-])NC2CCCCC2)c1: upper level
CC(C)(C)NC(=O)Nc1cccc(/C(=C\CCCC(=O)O)c2cccnc2)c1: middle level
CC(C)(C)/N=C(\NC#N)Nc1cccc(/C(=C\CCCCCC(=O)O)c2cccnc2)c1: lower level
CC(C)(C)/N=C(\NC#N)Nc1cccc(/C(=C\CCC(=O)O)c2cccnc2)c1: upper level
CC(C)C/N=C(/NC(N)=O)Nc1cccc(/C(=C\CCCC(=O)O)c2cccnc2)c1: middle level
CN(C)CC/N=C(/NC#N)Nc1cccc(/C(=C\CCCC(=O)O)c2cccnc2)c1: upper level

----------
# TARGET OF ASSAY: Thromboxane A2 receptor (Homo sapiens, UniProt P21731)
# Sequence (P21731 whole entry): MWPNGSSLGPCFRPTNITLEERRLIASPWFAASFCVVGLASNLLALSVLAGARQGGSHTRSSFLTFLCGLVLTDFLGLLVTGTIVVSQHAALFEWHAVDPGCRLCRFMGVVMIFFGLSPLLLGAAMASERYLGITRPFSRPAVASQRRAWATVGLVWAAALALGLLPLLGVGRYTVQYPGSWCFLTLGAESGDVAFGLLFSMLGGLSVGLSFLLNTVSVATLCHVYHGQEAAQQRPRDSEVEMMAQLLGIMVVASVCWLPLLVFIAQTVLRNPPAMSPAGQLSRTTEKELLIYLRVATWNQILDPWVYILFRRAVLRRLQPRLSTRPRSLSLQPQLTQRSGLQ
# PROTOCOL NOTES: In vitro activity on thromboxane A2 receptor antagonism in gel filtered human platelets.
Listing of recorded IC50 by entry.
MEASURED ENDPOINT: IC50 (nM)

CC(C)(C)/N=C(\NC#N)Nc1cccc(/C(=C\CCCCCC(=O)O)c2cccnc2)c1: 77
N#CN/C(=N/C12CC3CC(CC(C3)C1)C2)Nc1cccc(/C(=C\CCCC(=O)O)c2cccnc2)c1: 83
N/C(=N/C1CCCC1)Nc1cccc(/C(=C\CCCC(=O)O)c2cccnc2)c1: 1700
CN(C)CC/N=C(/NC#N)Nc1cccc(/C(=C\CCCC(=O)O)c2cccnc2)c1: 1000
CC(C)(C)/N=C(\NC#N)Nc1cccc(/C(=C\CCC(=O)O)c2cccnc2)c1: 81
